- tgt: EBOV NP (amino acids 36–351) (Zaire ebolavirus, UniProt P18272)
- Sequence (P18272 36-351 limits assumed): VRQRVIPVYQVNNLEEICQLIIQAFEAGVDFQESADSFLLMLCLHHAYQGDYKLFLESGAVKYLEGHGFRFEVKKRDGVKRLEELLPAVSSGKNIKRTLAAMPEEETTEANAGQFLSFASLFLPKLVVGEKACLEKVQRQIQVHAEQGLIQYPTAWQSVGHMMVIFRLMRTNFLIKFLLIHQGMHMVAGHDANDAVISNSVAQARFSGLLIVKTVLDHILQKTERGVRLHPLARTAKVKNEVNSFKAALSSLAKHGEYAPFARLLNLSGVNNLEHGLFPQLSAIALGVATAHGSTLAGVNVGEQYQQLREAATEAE
- Assay type: binding, Ebola virus
endpoint.label: S/N AVE
No unit in the answer, only the number.

Here are 2 compounds together with their reported answers.
compound	tgt	S/N AVE
O=c1cc(-c2ccc(O)cc2)oc2c([C@@H]3OC[C@H](O)[C@H](O)[C@H]3O)c(O)c([C@@H]3O[C@H](CO)[C@@H](O)[C@H](O)[C@H]3O)c(O)c12 [GC3, Schaftoside]	EBOV NP (amino acids 36–351) (Zaire ebolavirus, UniProt P18272)	1.11
C=CC(C)(C)c1cc(/C=C/C(=O)c2ccc(O)cc2)c(OC)cc1O	EBOV NP (amino acids 36–351) (Zaire ebolavirus, UniProt P18272)	5.17

Which S/N AVE is listed for COc1ccc(-c2coc3cc(O[C@@H]4O[C@H](CO)[C@@H](O)[C@H](O)[C@H]4O)ccc3c2=O)cc1 ? 1.46

What do you get for O=C(/C=C/c1ccc(O[C@@H]2O[C@H](CO)[C@@H](O)[C@H](O)[C@H]2O)cc1)c1ccc(O)cc1O ? 1.22

What do you get for O=C1C[C@@H](c2ccc(O)cc2)Oc2cc(O)ccc21 ? 1.04

What do you get for CC1(C)[C@@H](O[C@H]2O[C@H](C(=O)O)[C@@H](O)[C@H](O)[C@H]2O[C@@H]2O[C@H](C(=O)O)[C@@H](O)[C@H](O)[C@H]2O)CC[C@]2(C)[C@H]3C(=O)C=C4[C@@H]5C[C@@](C)(C(=O)O)CC[C@]5(C)CC[C@@]4(C)[C@]3(C)CC[C@@H]12 ? 1.15

What do you get for COc1ccc(-c2coc3cc(O)ccc3c2=O)cc1O ? 1.01

What do you get for O=C(/C=C/c1ccc(O)cc1)c1ccc(O[C@@H]2O[C@H](CO)[C@@H](O)[C@H](O)[C@H]2O)cc1O ? 1.58

Source of measurements: paper PMC4940736
